Test system: SARS-CoV-2
Protocol notes: Inhibition of cell viability relative to arbidol control (inhibition index > 1 indicates higher activity) measured by fluorescence (OD590nm) in Vero E6 cells infected with SARS-CoV-2 (strain BavPat1) at MOI 0.002 after 72hrs
Assay type: functional, Chlorocebus sabaeus, Vero C1008
The full ranking holds about 1,500 compounds; the median of “Inhibition index” is about 0.17, and the highest 2% start at about 1.3. The full list was thinned out, with the highest values kept by preference.
Property: Inhibition index

1) CC1(C)S[C@@H]2[C@H](NC(=O)[C@@H](c3ccccc3)S(=O)(=O)O)C(=O)N2[C@H]1C(=O)O.[Na+].[Na+]	0.4594
2) CCC1(c2cccc(O)c2)CCCCN(C)C1.Cl (configuration not stated) [MEPTAZINOL HYDROCHLORIDE]	1.137
3) Cl.NC1CCN(c2nc3c(cc2F)c(=O)c(C(=O)O)cn3-c2ccc(F)cc2F)C1 (configuration not stated)	0.1095
4) CCN(CC)CCCC(C)Nc1c2ccc(Cl)cc2nc2ccc(OC)cc12.Cl.Cl.O.O (configuration not stated) [QUINACRINE HYDROCHLORIDE]	-0.1724
5) CCN(CC)CCCC(C)Nc1ccnc2cc(Cl)ccc12.O=P(O)(O)O.O=P(O)(O)O (configuration not stated) [CHLOROQUINE PHOSPHATE]	1.351
6) Cl.OC(c1cc(C(F)(F)F)nc2c(C(F)(F)F)cccc12)C1CCCCN1 (configuration not stated) [MEFLOQUINE HYDROCHLORIDE]	-0.1263
7) C=C1/C(=C\C=C2/CCC[C@]3(C)[C@@H]([C@H](C)CCCC(C)C)CC[C@@H]23)C[C@@H](O)C[C@@H]1O [ALFACALCIDOL]	-0.1396
